Origin of measurements: patent US20220087983A1

- testProtocol: Permeability Papp (A-B)
- Type: in vitro ADME
- details: not told
measurementType: Papp A→B (×10⁻⁶ cm/s)

>>> observedvalue("O=C([C@H](CO)c1ccccc1)N1CC2=C(C1)CN(S(=O)(=O)c1cnc3c(c1)OCCO3)C2 (single isomer, unassigned)")
5.46

----------
- targetSystem: CYP2D6 (Homo sapiens, UniProt P10635)
- Sequence (P10635 whole entry): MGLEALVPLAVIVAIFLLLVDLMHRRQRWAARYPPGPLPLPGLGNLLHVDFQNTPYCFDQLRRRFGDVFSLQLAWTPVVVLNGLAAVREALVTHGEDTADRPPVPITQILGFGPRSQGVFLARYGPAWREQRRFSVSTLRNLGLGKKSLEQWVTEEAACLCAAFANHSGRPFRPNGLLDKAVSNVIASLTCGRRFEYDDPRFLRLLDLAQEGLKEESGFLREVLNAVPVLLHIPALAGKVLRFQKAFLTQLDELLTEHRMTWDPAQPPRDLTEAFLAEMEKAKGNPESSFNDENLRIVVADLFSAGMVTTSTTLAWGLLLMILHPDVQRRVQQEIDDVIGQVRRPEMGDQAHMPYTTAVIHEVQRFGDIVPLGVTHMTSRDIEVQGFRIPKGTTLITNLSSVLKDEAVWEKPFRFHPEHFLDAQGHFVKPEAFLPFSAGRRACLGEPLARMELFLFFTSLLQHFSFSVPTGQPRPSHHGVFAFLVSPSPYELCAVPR
measurementType: IC50

>>> observedvalue("O=C([C@H](CO)c1ccccc1)N1CC2=C(C1)CN(S(=O)(=O)c1cnc3c(c1)OCCO3)C2 (single isomer, unassigned) [Compound 1]")
"> 30 µM"

----------
- testProtocol: Phase 1: plasma pharmacokinetics in SCD patients
- Type: in vivo
- details: human, oral, SCD (N = 5), single dose 700 mg, median [min, max]
- Procedure: This is a first-in-human (FIH), Phase 1 study of Compound 1 that will characterize the safety, PK, and PD of Compound 1 after a single dose and after repeated dosing first in healthy adult volunteers and then in adolescents or adults with sickle cell disease. […] In this study, SAD/MAD cohorts are randomized (3 to 1) to receive Compound 1 or placebo (P). Compound 1 was evaluated first in 4 healthy SAD cohorts and 4 healthy MAD (14-day dosing period) cohorts. […]
measurementType: Tmax (h)

>>> observedvalue("O=C([C@H](CO)c1ccccc1)N1CC2=C(C1)CN(S(=O)(=O)c1cnc3c(c1)OCCO3)C2 (single isomer, unassigned) [Compound 1]")
2

----------
- Test system: CYP2B6
- testProtocol: CYP mRNA induction in cultured human hepatocytes
- Type: in vitro ADME
- details: human, primary cultured human hepatocytes, 0.033 μM; donors AIH, EUJ, HC5-40 individually
measurementType: fold induction at 0.033 µM

>>> observedvalue("O=C([C@H](CO)c1ccccc1)N1CC2=C(C1)CN(S(=O)(=O)c1cnc3c(c1)OCCO3)C2 (single isomer, unassigned)")
0.982

----------
- testProtocol: Phase 1 SAD/MAD/food effect: plasma pharmacokinetics in healthy volunteers
- Format: in vivo, human
- details: human, plasma, oral; HS and SCD subjects similar; read-out: AUC0-24
measurementType: AUC(0-t)

>>> observedvalue("O=C([C@H](CO)c1ccccc1)N1CC2=C(C1)CN(S(=O)(=O)c1cnc3c(c1)OCCO3)C2 (single isomer, unassigned)")
"~7000 ng·h/mL"

----------
- testProtocol: Phase 1 SAD/MAD/food effect: plasma pharmacokinetics in healthy volunteers
- Format: in vivo, human
- details: human, plasma, oral; HV (N = 6); single dose 700 mg; geometric mean (geometric CV)
measurementType: Cmax (ng/mL)

>>> observedvalue("O=C([C@H](CO)c1ccccc1)N1CC2=C(C1)CN(S(=O)(=O)c1cnc3c(c1)OCCO3)C2 (single isomer, unassigned)")
2200

----------
- Tested on: CYP2B6
- testProtocol: CYP mRNA induction in cultured human hepatocytes
- Type: in vitro ADME
- details: human, primary cultured human hepatocytes, 0.33 μM; donors AIH, EUJ, HC5-40 individually
measurementType: fold induction at 0.33 µM

>>> observedvalue("O=C([C@H](CO)c1ccccc1)N1CC2=C(C1)CN(S(=O)(=O)c1cnc3c(c1)OCCO3)C2 (single isomer, unassigned)")
1

----------
- testProtocol: Phase 1: plasma pharmacokinetics in SCD patients
- Format: in vivo
- details: human, oral, SCD (N = 5), single dose 700 mg, geometric mean (geometric CV)
measurementType: AUC(0-inf) (ng·h/mL)

>>> observedvalue("O=C([C@H](CO)c1ccccc1)N1CC2=C(C1)CN(S(=O)(=O)c1cnc3c(c1)OCCO3)C2 (single isomer, unassigned) [Compound 1]")
7300
